Hey, just so you know, these numbers are from patent US20240217966A1.

- TEST_DESCRIPTION: Metabolism stability test (Test Example 2-2)
- Assay type: in vitro ADME
- DETAILS: pooled human liver microsomes 0.5 mg protein/mL, 37° C., 30 minutes, 1 mmol/L NADPH (oxidative reaction), compound concentration 0.5 μmol/L
- Procedure: Test Example 2-2: Metabolism Stability Test Using commercially available pooled human liver microsomes, a compound of the present invention is reacted for a constant time, and a remaining rate is calculated by comparing a reacted sample and an unreacted sample, thereby, a degree of metabolism in liver is assessed. […]
RECORDED_METRIC: residual rate of the compound (%)

[
  {
    "SMILES_STR": "O=C(O)c1cc(F)c2nc(CN3CCc4cc(C(F)(F)F)c(OCc5ccc(Cl)cc5F)cc4C3)n(C[C@@H]3CCO3)c2c1",
    "RECORDED_METRIC": "residual rate of the compound",
    "TEST_VALUE": 87.1
  },
  {
    "SMILES_STR": "C[C@H]1c2nc(OCc3ccc(Cl)cc3F)c(C(F)(F)F)cc2CCN1Cc1nc2ccc(C(=O)O)cc2n1C[C@@H]1CCO1",
    "RECORDED_METRIC": "residual rate of the compound",
    "TEST_VALUE": 94.0
  },
  {
    "SMILES_STR": "C[C@H]1c2cc(OCc3ccc(Cl)cc3F)c(C(F)(F)F)cc2CCN1Cc1nc2ccc(C(=O)O)c(F)c2n1C[C@@H]1CCO1",
    "RECORDED_METRIC": "residual rate of the compound",
    "TEST_VALUE": 96.9
  },
  {
    "SMILES_STR": "O=C(O)c1ccc2nc(Cc3ccc4nc(C(F)(F)F)c(OCc5ccc(Cl)cc5F)nc4c3F)n(C[C@@H]3CCO3)c2c1",
    "RECORDED_METRIC": "residual rate of the compound",
    "TEST_VALUE": 99.6
  },
  {
    "SMILES_STR": "C[C@H]1c2nc(OCc3ccc(Cl)cc3F)c(C(F)(F)F)cc2CCN1Cc1nc2ccc(C(=O)O)c(F)c2n1C[C@@H]1CCO1",
    "RECORDED_METRIC": "residual rate of the compound",
    "TEST_VALUE": 92.4
  },
  {
    "SMILES_STR": "C[C@H]1c2cc(OCc3ccc(Cl)cc3F)c(C(F)(F)F)cc2CCN1Cc1nc2ccc(C(=O)O)cc2n1C[C@@H]1CCO1",
    "RECORDED_METRIC": "residual rate of the compound",
    "TEST_VALUE": 87.1
  }
]
